Measured pKi values are reported for all entries that follow.
Biological target: BCL2 G101V (Homo sapiens, UniProt P10415, G101V)
Test: TR-FRET competitive binding assay, BCL2 G101V
Conditions: BCL2 G101V; Ki determined from IC50; read-out: TR_FRET EKI_Bcl2 G101V
Kindly note that pKi refers to -log10 of the concentration in mol/L and answer with the value alone.

Below: 4 molecules and their reported pKi.
INSERT INTO measurements (structure_notation, measured_target, test_readout, numeric_result) VALUES
  ('Cc1c(N(C(=O)c2cc(-c3cc4c(cc3C(=O)N3Cc5ccccc5C[C@H]3C)CN(C(=O)Cc3ccc(OCCN5CCC(O)CC5)cc3)CC4)n(C)c2C)c2ccc(O)cc2)cc(C#N)n1C', 'BCL2 G101V (Homo sapiens, UniProt P10415, G101V)', 'pKi', 9.70),
  ('Cc1c(N(C(=O)c2cc(-c3cc4c(cc3C(=O)N3Cc5ccccc5C[C@H]3CN3CCC[C@@H]3C)CN(C(=O)Cc3ccc(OCCN5CCOCC5)cc3F)CC4)n(C)c2C)c2ccc(O)cc2)cc(C#N)n1C', 'BCL2 G101V (Homo sapiens, UniProt P10415, G101V)', 'pKi', 9.52),
  ('Cc1c(C(=O)N(c2ccc(O)cc2)c2cnn(C(F)F)c2)cc(-c2cc3c(cc2C(=O)N2Cc4ccccc4C[C@H]2C)CN(C(=O)Cc2ccc(OCCN4CCOCC4)cc2)CC3)n1C', 'BCL2 G101V (Homo sapiens, UniProt P10415, G101V)', 'pKi', 9.08),
  ('COc1ccc(N(C(=O)c2cc(-c3cc4c(cc3C(=O)N3Cc5ccccc5C[C@H]3CN3CC5(CCC5)C3)CN(C(=O)Cc3ccc(OCCN5CCOCC5)cc3F)CC4)n(C)c2C)c2ccc(O)cc2)cc1C#N', 'BCL2 G101V (Homo sapiens, UniProt P10415, G101V)', 'pKi', 9.40);

Task: Which pKi value belongs to Cc1c(N(C(=O)c2cc(-c3cc4c(cc3C(=O)N3Cc5ccccc5C[C@H]3C)CN(C(=O)Cc3ccc(F)cc3F)CC4)n(C)c2C)c2ccc(O)cc2)cc(C#N)n1C ?
Result: 8.89

====

System: KMS12PE Bcl2 V156D
Assay: In vitro cytotoxicity CellTiterGlo 72 h, KMS12PE Bcl2 V156D
Assay type: cell-based
Details: Homo sapiens, KMS-12-PE, read-out: C50 nM, KMS12PE Bcl2 V156D
The compounds listed here are annotated with their IC50.

Reference set (3 entries):
INSERT INTO results (compound, result) VALUES
  ('CC1(C)CCC(CN2CCN(c3ccc(C(=O)NS(=O)(=O)c4ccc(NCC5CCOCC5)c([N+](=O)[O-])c4)c(Oc4cnc5[nH]ccc5c4)c3)CC2)=C(c2ccc(Cl)cc2)C1 [ABT199, Venetoclax, reference compound]', '139 nM'),
  ('COC[C@@H]1Cc2ccccc2CN1C(=O)c1cc2c(cc1-c1cc(C(=O)N(c3ccc(O)cc3)c3cc(C#N)n(C)c3C)c(C)n1C)CCN(C(=O)Cc1ccc(OCCC3CCOCC3)cc1F)C2 [Example 52]', '10.6 nM'),
  ('Cc1c(N(C(=O)c2cc(-c3cc4c(cc3C(=O)N3Cc5ccccc5C[C@H]3C)CN(C(=O)Cc3ccc(OCCN5CCC(F)CC5)cc3)CC4)n(C)c2C)c2ccc(O)cc2)cc(C#N)n1C [Example 53]', '21.4 nM');

Task: Record request: IC50 value, item Cc1c(N(C(=O)c2cc(-c3cc4c(cc3C(=O)N3Cc5ccccc5C[C@H]3C)CN(C(=O)Cc3ccc(OCCN5CCSCC5)cc3)CC4)n(C)c2C)c2ccc(O)cc2)cc(C#N)n1C [Example 55]
Result: 14.9 nM
